In this section, each of the compounds is paired with its reported Activity.
Molecular target: Peroxisome proliferator-activated receptor alpha (Homo sapiens)
Assay: Agonist potency at PPARalpha expressed in CV1 cells relative to GW-590735
Format: functional, cell-based
Settings: CV-1
Number only, in %; omit the unit.

In the examples that follow, each entry is paired with its recorded Activity.
Cc1nc(-c2ccc(OC(F)(F)F)cc2)sc1C(=O)NCc1ccc(OC(C)(C)C(=O)O)cc1; 116
Cc1nc(-c2ccc(C(F)(F)F)cc2)sc1C(=O)N(C)Cc1ccc(OC(C)(C)C(=O)O)cc1; 84
COc1ccc(-c2nc(C)c(C(=O)NCc3ccc(OC(C)(C)C(=O)O)cc3)s2)cc1; 103
Cc1nc(-c2ccc([N+](=O)[O-])cc2)sc1C(=O)NCc1ccc(OC(C)(C)C(=O)O)cc1; 111

Now take the following compound into account.
Quick one: Activity for Cc1nc(-c2ccc(Cl)cc2)sc1C(=O)NCc1ccc(OC(C)(C)C(=O)O)cc1 ? 94
